Entry source: patent US20250281611A1

Target: T1, CD19 (UniProt P15391 20-556, limits assumed)
T1 construct: whole, on cells; also called CD19 on JeKo-1
T1 sequence (looked up): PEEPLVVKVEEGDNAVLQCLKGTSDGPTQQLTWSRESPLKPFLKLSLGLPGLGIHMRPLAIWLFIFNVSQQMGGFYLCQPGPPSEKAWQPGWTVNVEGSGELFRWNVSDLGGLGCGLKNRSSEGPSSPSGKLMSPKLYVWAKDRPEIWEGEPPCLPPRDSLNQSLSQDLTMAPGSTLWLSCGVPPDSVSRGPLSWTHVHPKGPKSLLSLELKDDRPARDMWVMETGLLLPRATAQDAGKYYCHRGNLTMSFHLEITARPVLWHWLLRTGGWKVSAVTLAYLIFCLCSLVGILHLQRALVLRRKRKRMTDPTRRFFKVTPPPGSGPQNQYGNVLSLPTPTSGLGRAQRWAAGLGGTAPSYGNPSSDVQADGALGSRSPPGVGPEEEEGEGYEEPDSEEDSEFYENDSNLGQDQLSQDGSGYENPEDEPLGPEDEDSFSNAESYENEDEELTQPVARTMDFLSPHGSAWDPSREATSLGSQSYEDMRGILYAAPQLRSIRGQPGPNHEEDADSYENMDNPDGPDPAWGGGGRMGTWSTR
Assay: flow cytometry, JeKo-1 cells, anti-His-FITC detection, MFI over no-bridge control
Measured metric: MFIR HisTag FITC
// print number alone

Worked examples, 3 binders total:
Binder: CD19 BRIDGE variant B8 (Fab, V domains shown) VH: EVQLVESGGGLVKPGGSLKLSCAASGYTFTSYVMHWVRQAPGKGLEWIGYINPYNDGTKYNEKFQGRVTISSDKSISTAYMELSSLRSEDTAMYYCARGTYYYGTRVFDYWGQGTLVTVSS VL: DIVMTQSPATLSLSPGERATLSCRSSKSLQNVNGNTYLYWFQQKPGQSPQLLIYRMSNLNSGVPDRFSGSGSGTEFTLTISSLEPEDFAVYYCMQHLEYPITFGAGTKLEIKR
Measured metric: MFIR HisTag FITC
Reported: 4.65

Binder: CD19 BRIDGE variant B13 (Fab, V domains shown) VH: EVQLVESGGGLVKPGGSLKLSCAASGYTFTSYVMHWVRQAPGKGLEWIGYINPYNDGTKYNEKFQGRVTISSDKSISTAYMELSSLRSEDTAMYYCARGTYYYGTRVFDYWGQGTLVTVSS VL: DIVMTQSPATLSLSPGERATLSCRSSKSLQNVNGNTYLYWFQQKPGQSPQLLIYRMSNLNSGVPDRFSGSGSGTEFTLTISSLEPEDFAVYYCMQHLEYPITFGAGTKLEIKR
Measured metric: MFIR HisTag FITC
Reported: 3.88

Binder: CD19 BRIDGE variant B3 (Fab, V domains shown) VH: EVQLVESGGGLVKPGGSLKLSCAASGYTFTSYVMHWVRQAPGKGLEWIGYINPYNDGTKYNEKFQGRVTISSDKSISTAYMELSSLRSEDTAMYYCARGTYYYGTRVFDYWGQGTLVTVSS VL: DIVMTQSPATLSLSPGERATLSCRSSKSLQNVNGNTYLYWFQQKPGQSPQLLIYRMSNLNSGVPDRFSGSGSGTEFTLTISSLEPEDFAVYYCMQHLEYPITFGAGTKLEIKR
Measured metric: MFIR HisTag FITC
Reported: 4.71

Incoming: Would you kindly share the measured MFIR HisTag FITC for CD19 BRIDGE variant B7 (Fab, V domains shown) VH: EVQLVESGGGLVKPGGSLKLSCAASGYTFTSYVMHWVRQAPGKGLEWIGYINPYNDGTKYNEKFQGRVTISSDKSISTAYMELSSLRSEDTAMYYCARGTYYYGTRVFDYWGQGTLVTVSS VL: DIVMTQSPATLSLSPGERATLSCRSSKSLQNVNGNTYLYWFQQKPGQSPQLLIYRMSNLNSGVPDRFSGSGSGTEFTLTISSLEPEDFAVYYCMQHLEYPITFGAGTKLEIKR ?
Outgoing: 4.3
